The reader will find reported EC50 values listed item by item below.
# Test system: Plasmodium falciparum
# testDescription: Antimalarial activity against chloroquine-resistant Plasmodium falciparum Dd2 assessed as inhibition of parasite growth incubated for 72 hrs by SYBR green I-based DNA quantification assay
# Format: functional, organism-based
# conditionNotes: Dd2, 72 h
Use nM as the unit, but write only the number.

Some compounds with known EC50 results, for comparison:
> print(dat)
                                   compound  endpoint  testresult
1  O=C1C[C@@]2(CCCN(CCc3ccc(F)c(F)c3)C2)Oc2c1ccc1ccccc21      EC50         330
2            C1=CC2(CCNCC2)Oc2c1ccc1ccccc21      EC50         490

-- ask What measured EC50 goes with OC1CC2(CCN(CCc3ccccc3)CC2)Oc2c1ccc1ccccc21 (stereo not given) ?
-- reply 320

-- ask What measured EC50 goes with OC1CC2(CCN(CCc3ccc(Cl)c(Cl)c3)CC2)Oc2c1ccc1ccccc21 (stereo not given) ?
-- reply 2100

----------
# testDescription: Selectivity index, ratio of EC50 for cytotoxicity against human HepG2 cells to EC50 for antimalarial activity against chloroquine-resistant Plasmodium falciparum Dd2
# Type: toxicity, cell-based
# conditionNotes: read-out: Ratio EC50
endpoint: selectivity ratio
// no unit string in output, number only

Some molecules with known selectivity ratio results, for comparison:
> print(dat)
                                    molecule  testresult
 1  OC1C[C@]2(CCCN(CCc3ccc(F)c(F)c3)C2)Oc2c1ccc1ccccc21 (stereo partly specified)         1.9
 2  OC1CC2(CCN(CCCc3ccccc3)CC2)Oc2c1ccc1ccccc21 (stereo unspecified)           2
 3  Fc1ccc(CCN2CCC3(CCc4ccc5c(c4O3)CCCC5)CC2)cc1F           4
 4  OC1CC2(CCN(Cc3ccccc3)CC2)Oc2c1ccc1ccccc21 (stereo unspecified)         5.7
 5           c1cc2c(c3c1CCCC3)OC1(CCNCC1)CC2           4
 6       O=C1C[C@@]2(CCCNC2)Oc2c1ccc1ccccc21           9
 7  O=C1CC2(CCN(CCc3ccc(F)c(F)c3)CC2)Oc2c1ccc1ccccc21           4
 8  Fc1ccc(CCN2CCC3(C=Cc4ccc5ccccc5c4O3)CC2)cc1F         7.2
 9  CCN1CCC2(CC1)CC(O)c1ccc3ccccc3c1O2 (stereo unspecified)         3.2
10  O=C1C[C@@]2(CCCN(CCc3ccc(F)c(F)c3)C2)Oc2c1ccc1ccccc21        34.2

-- ask What measured selectivity ratio goes with O=C1C[C@]2(CCCNC2)Oc2c1ccc1ccccc21 ?
-- reply 2.4

-- ask What measured selectivity ratio goes with CCN1CCC[C@]2(CC(=O)c3ccc4ccccc4c3O2)C1 ?
-- reply 1.3

-- ask What measured selectivity ratio goes with O[C@@H]1CC2(CCN(C[C@H](O)c3ccc(F)c(F)c3)CC2)Oc2c1ccc1ccccc21 ?
-- reply 16

-- ask What measured selectivity ratio goes with O=C1CC2(CCN(Cc3ccccc3)CC2)Oc2c1ccc1ccccc21 ?
-- reply 4

-- ask What measured selectivity ratio goes with O[C@H](CN1CCC2(CC1)C[C@H](O)c1ccc3ccccc3c1O2)c1ccc(F)c(F)c1 ?
-- reply 11

-- ask What measured selectivity ratio goes with O=C1C[C@]2(CCCN(CCc3ccc(F)c(F)c3)C2)Oc2c1ccc1ccccc21 ?
-- reply 5.8

----------
# testDescription: Cytotoxicity against human HepG2 cells assessed as reduction in cell viability incubated for 48 hrs by MTS assay
# Type: toxicity, cell-based
The reader will find reported EC50 at 48 h values listed item by item below.
Use µM as the unit, but write only the number.

Some molecules with known EC50 at 48 h results, for comparison:
> print(dat)
                                   molecule      endpoint  testresult
1  O=C1CC2(CCN(Cc3ccccc3)CC2)Oc2c1ccc1ccccc21  EC50 at 48 h          11
2   CCN1CCC[C@@]2(CC(=O)c3ccc4ccccc4c3O2)C1  EC50 at 48 h           8
3       CCN1CCC2(CC1)CC(=O)c1ccc3ccccc3c1O2  EC50 at 48 h          18
4  OC1CC2(CCN(CCC3CCCCC3)CC2)Oc2c1ccc1ccccc21 (stereo not drawn)  EC50 at 48 h          14

-- ask What measured EC50 at 48 h goes with O=C1CC2(CCN(CCc3ccccc3)CC2)Oc2c1ccc1ccccc21 ?
-- reply 8

-- ask What measured EC50 at 48 h goes with O=C(CN1CCC2(CC1)CC(=O)c1ccc3ccccc3c1O2)c1ccc(F)c(F)c1 ?
-- reply 4

-- ask What measured EC50 at 48 h goes with CCN1CCC2(CC1)CC(O)c1ccc3ccccc3c1O2 (stereo not drawn) ?
-- reply 16

-- ask What measured EC50 at 48 h goes with O=C1CC2(CCNCC2)Oc2c1ccc1ccccc21 ?
-- reply 7

-- ask What measured EC50 at 48 h goes with O=C(Cc1ccc(F)c(F)c1)N1CCC2(CC1)CC(O)c1ccc3ccccc3c1O2 (stereo not drawn) ?
-- reply 5

----------
# testDescription: Octanol-water distribution coefficient, logD of the compound at pH 3 by HPLC-based analysis
# Type: physicochemical
Label rule met when logD is at or above 3; otherwise label rule not met.

> print(dat)
                                   compound    labelclass
1           O=C1CC2(CCNCC2)Oc2c1ccc1ccccc21  rule not met
2           CCN1CCC2(CCc3ccc4ccccc4c3O2)CC1  rule not met
3           c1ccc2c3c(ccc2c1)CCC1(CCNCC1)O3  rule not met
4  Fc1ccc(CCN2CCC3(CCc4ccc5ccccc5c4O3)CC2)cc1F      rule met
5  OC1CC2(CCNCC2)Oc2c1ccc1ccccc21 (stereo not drawn)  rule not met

-- ask Could you please find out whether CCN1CCC2(CC1)CC(=O)c1ccc3ccccc3c1O2 has logD that meets 3 or exceeds it?
-- reply rule not met

----------
# System: Plasmodium falciparum
# testDescription: Antimalarial activity against chloroquine-resistant Plasmodium falciparum Dd2 assessed as inhibition of parasite growth incubated for 72 hrs by SYBR green I-based DNA quantification assay
# Assay type: functional, organism-based
# conditionNotes: Dd2, 72 h
The reader will find reported EC50 values listed item by item below.

Some compounds with known EC50 results, for comparison:
> print(dat)
                                   compound  testresult
1           c1ccc2c3c(ccc2c1)CCC1(CCNCC1)O3    > 2.5 µM
2  O=C(CN1CCC2(CC1)CC(=O)c1ccc3ccccc3c1O2)c1ccc(F)c(F)c1      1.3 µM
3  O[C@H](CN1CCC2(CC1)C[C@H](O)c1ccc3ccccc3c1O2)c1ccc(F)c(F)c1     1.79 µM
4  O[C@H](CN1CCC2(CC1)C[C@@H](O)c1ccc3ccccc3c1O2)c1ccc(F)c(F)c1    > 2.5 µM

-- ask What measured EC50 goes with CCN1CCC2(CC1)CC(=O)c1ccc3ccccc3c1O2 ?
-- reply > 2.5 µM

-- ask What measured EC50 goes with O=C1CC2(CCN(CCCc3ccccc3)CC2)Oc2c1ccc1ccccc21 ?
-- reply 0.48 µM

-- ask What measured EC50 goes with O=C1C[C@]2(CCCNC2)Oc2c1ccc1ccccc21 ?
-- reply 1.2 µM

-- ask What measured EC50 goes with OC1CC2(CCN(CCC3CCCCC3)CC2)Oc2c1ccc1ccccc21 (configuration not stated) ?
-- reply 0.5 µM

-- ask What measured EC50 goes with OC1C[C@@]2(CCCN(CCc3ccc(F)c(F)c3)C2)Oc2c1ccc1ccccc21 (some centres not stated) ?
-- reply 0.61 µM

-- ask What measured EC50 goes with c1ccc(CCCN2CCC3(CCc4ccc5ccccc5c4O3)CC2)cc1 ?
-- reply 1.41 µM

-- ask What measured EC50 goes with Fc1ccc(CCN2CCC3(CCc4ccc5ccccc5c4O3)CC2)cc1F ?
-- reply 1.91 µM

----------
The reader will find reported EC50 at 48 h values listed item by item below.
# testDescription: Cytotoxicity against human HepG2 cells assessed as reduction in cell viability incubated for 48 hrs by MTS assay
# Assay type: toxicity, cell-based

Some molecules with known EC50 at 48 h results, for comparison:
> print(dat)
                                   molecule      endpoint  testresult
1            C1=CC2(CCNCC2)Oc2c1ccc1ccccc21  EC50 at 48 h     > 20 µM
2  CCN1CCC[C@@]2(CC(O)c3ccc4ccccc4c3O2)C1 (stereo not given in full)  EC50 at 48 h     > 20 µM
3  O[C@H](CN1CCC2(CC1)C[C@H](O)c1ccc3ccccc3c1O2)c1ccc(F)c(F)c1  EC50 at 48 h     > 20 µM
4  Fc1ccc(CCN2CCC3(CCc4ccc5c(c4O3)CCCC5)CC2)cc1F  EC50 at 48 h     > 20 µM
5  O=C1CC2(CCN(CCc3ccc(F)c(F)c3)CC2)Oc2c1ccc1ccccc21  EC50 at 48 h     > 20 µM

-- ask What measured EC50 at 48 h goes with O=C1CC2(CCN(C(=O)Cc3ccc(F)c(F)c3)CC2)Oc2c1ccc1ccccc21 ?
-- reply 18 µM

-- ask What measured EC50 at 48 h goes with OC1CC2(CCN(Cc3ccccc3)CC2)Oc2c1ccc1ccccc21 (stereo not given) ?
-- reply 6 µM
